target: HIF-1 (HIF-1alpha/HIF-1beta (ARNT) heterodimer) (Homo sapiens?, UniProt Q16665;P27540 Q16665:1-826,P27540:2-789); assay: competition; TransAM; conditions: protein: extract; tags: none (endogenous, nuclear extract)
Sequence (Q16665 whole entry, chain 1 of 2): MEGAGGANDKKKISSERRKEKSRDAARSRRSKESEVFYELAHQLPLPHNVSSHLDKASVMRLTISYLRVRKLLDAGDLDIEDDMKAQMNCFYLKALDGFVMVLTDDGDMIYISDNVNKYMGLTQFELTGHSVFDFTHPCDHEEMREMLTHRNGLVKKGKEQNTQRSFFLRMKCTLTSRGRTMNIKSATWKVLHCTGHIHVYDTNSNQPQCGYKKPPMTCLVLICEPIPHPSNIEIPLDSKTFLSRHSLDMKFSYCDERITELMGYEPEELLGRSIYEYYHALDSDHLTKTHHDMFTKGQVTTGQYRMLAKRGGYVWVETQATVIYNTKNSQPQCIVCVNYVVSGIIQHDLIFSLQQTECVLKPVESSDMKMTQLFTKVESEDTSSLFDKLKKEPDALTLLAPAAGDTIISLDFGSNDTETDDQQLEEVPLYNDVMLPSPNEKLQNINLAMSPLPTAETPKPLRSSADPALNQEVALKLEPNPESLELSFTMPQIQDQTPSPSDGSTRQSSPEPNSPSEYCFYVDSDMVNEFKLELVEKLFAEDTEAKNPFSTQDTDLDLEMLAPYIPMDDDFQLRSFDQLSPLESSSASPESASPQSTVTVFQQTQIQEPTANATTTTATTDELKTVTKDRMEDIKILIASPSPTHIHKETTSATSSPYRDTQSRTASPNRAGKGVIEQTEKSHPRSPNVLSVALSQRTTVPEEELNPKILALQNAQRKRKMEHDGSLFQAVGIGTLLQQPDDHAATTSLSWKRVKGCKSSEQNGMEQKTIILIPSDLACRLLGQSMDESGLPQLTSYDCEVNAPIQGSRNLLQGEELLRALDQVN
Sequence (P27540 2-789, chain 2 of 2): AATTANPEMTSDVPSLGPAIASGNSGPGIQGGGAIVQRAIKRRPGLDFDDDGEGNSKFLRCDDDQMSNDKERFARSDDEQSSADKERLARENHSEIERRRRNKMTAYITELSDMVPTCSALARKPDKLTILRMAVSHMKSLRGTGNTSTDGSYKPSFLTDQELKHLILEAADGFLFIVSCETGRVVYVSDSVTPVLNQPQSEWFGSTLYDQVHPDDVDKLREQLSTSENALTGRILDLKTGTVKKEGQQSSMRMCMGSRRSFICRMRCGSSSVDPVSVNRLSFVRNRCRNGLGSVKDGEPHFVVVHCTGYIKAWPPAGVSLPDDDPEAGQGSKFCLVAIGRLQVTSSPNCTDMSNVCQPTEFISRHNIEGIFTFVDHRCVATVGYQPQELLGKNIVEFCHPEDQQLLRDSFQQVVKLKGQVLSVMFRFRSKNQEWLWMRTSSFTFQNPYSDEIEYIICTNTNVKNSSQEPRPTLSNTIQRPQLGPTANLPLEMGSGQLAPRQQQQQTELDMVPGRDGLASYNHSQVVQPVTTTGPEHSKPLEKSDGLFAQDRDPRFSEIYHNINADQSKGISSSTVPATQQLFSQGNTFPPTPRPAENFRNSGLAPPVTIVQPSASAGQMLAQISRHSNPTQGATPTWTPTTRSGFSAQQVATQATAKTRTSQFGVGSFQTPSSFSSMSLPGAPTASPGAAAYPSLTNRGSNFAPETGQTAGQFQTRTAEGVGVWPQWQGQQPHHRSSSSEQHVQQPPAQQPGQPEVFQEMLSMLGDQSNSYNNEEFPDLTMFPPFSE
Reported values of binding signal for individual entries
measurement.name: binding signal (ratio)

1. decoy 901 (dsDNA) DNA 1: CACGTGCATACGTGGGCTCCA DNA 2: TGGAGCCCACGTATGCACGTG
1.6
2. decoy 801/802 (dsDNA) DNA 1: GCCCTACGTGCTGTCTCA DNA 2: TGAGACAGCACGTAGGGC
4
3. decoy 929 (dsDNA) DNA 1: CCAGCGTGCGTGCCTCAGG DNA 2: CCTGAGGCACGCACGCTGG
2.35
4. decoy 961 (dsDNA) DNA 1: CCAGCGGACGTGCCTCAGG DNA 2: CCTGAGGCACGTCCGCTGG
1.65
5. decoy 885/886 (dsDNA) DNA 1: TACAGACGTGCAGGTC DNA 2: GACCTGCACGTCTGTA
4.46
6. decoy 941 (dsDNA) DNA 1: CCAGCGTACCTGCCTCAGG DNA 2: CCTGAGGCAGGTACGCTGG
3.45

Where do the numbers come from? From patent US20050215503.
